Test system: SK-HEP1
ASSAY PROCEDURE: Inhibitory concentration against human SK-Hep-1 cells (hepatoma cell line)
Format: functional, cell-based
OBSERVATION TYPE: IC50 (nM)

These solved cases illustrate the format of a correct answer.
1) O=C(NCC(=O)N(CCO)CC1CCCO1)c1cc2cc(Cl)ccc2[nH]1 (centres undefined) ... 5700
2) O=C(NCC(=O)N(CCO)C1CCSC1)c1cc2cc(Cl)ccc2[nH]1 (centres undefined) ... 5000
3) CC(C)(O)CN(C(=O)CNC(=O)c1cc2cc(Cl)ccc2[nH]1)C1CCCC1 ... 1400
4) NC(CO)CN(C(=O)CNC(=O)c1cc2cc(Cl)ccc2[nH]1)C1CCCC1 (centres undefined) ... 8300
5) O=C(NCC(=O)N(CCOCCO)C1CCCC1)c1cc2cc(Cl)ccc2[nH]1 ... 3800

a. CCCCN(C)C(=O)CNC(=O)c1cc2cc(Cl)ccc2[nH]1
b. N#CCN(C(=O)CNC(=O)c1cc2cc(Cl)ccc2[nH]1)C1CCCC1
c. O=C(NCC(=O)N(CCO)C1CCCCCC1)c1cc2cc(Cl)ccc2[nH]1
d. O=C(NCC(=O)N(CCO)c1ccccc1)c1cc2cc(Cl)ccc2[nH]1
Q. Arrange these 4 compounds in increasing order of IC50. Note for the reader: the ranking is given by listing the labels in the order requested.
A. d, b, a, c

I. CN(C(=O)CNC(=O)c1cc2cc(Cl)ccc2[nH]1)C1CCC1
II. CN(CCO)C(=O)CNC(=O)c1cc2cc(Cl)ccc2[nH]1
III. O=C(NCC(=O)N(CCO)C1CCC1)c1cc2cc(Cl)ccc2[nH]1
IV. CCN(C(=O)CNC(=O)c1cc2cc(Cl)ccc2[nH]1)C1CCCC1
V. CCCCN(C(=O)CNC(=O)c1cc2cc(Cl)ccc2[nH]1)C1CCCC1
Q. Arrange these 5 compounds in increasing order of IC50. Note for the reader: the ranking is given by listing the labels in the order requested.
A. IV, I, III, II, V

A. CN(CC1CC1)C(=O)CNC(=O)c1cc2cc(Cl)ccc2[nH]1
B. CN(C(=O)CNC(=O)c1cc2cc(Cl)ccc2[nH]1)C1CCOCC1
C. CC(C)(C)N(CCO)C(=O)CNC(=O)c1cc2cc(Cl)ccc2[nH]1
D. CCCN(CCO)C(=O)CNC(=O)c1cc2cc(Cl)ccc2[nH]1
Q. Please rank these compounds by IC50 in descending order. Note for the reader: the ranking is given by listing the labels in the order requested.
A. C, B, A, D
(C: 6700 nM, B: 3400 nM, A: 1200 nM, D: 490 nM)

A. O=C(NCC(=O)N(CCO)C1CC1)c1cc2cc(Cl)ccc2[nH]1
B. CN(C(=O)CNC(=O)c1cc2cc(Cl)ccc2[nH]1)C1CCCCC1
C. CN(C)C(=O)CN(C(=O)CNC(=O)c1cc2cc(Cl)ccc2[nH]1)C1CCCC1
D. O=C(NCC(=O)N(CCCO)C1CCCC1)c1cc2cc(Cl)ccc2[nH]1
E. CN(C(=O)CNC(=O)c1cc2cc(Cl)ccc2[nH]1)C1CCS(=O)(=O)C1 (centres undefined)
Q. Please rank these compounds by IC50 in descending order. Note for the reader: the ranking is given by listing the labels in the order requested.
A. C, A, E, B, D
